Reference source: patent US9512121B2

# TEST PROTOCOL: Pharmacokinetic test in rats after intragastric administration (LC/MS/MS of plasma)
# Type: in vivo, Sprague-Dawley (SD) rats
# TEST PARAMETERS: both sexes, Sprague-Dawley, rat, plasma, po, SD rats, protocol 10.0 mg/kg, read-out: Mean Residence Time MRT
READOUT: MRT (h)

structure=CN1C(=O)COc2c1cnc1ccc(Sc3nnc4c(F)cc(-c5cnn(C)c5)cn34)cc21 readout_unit=h numeric_readout=9.1

[I] Cn1cc(-c2cc(F)c3nnc(Sc4ccc5ncc6c(c5c4)OCCO6)n3c2)cn1
[II] Cn1cc(-c2ccc3nnc(Sc4ccc5ncc(N6CCOCC6)c(F)c5c4)n3c2)cn1
Ask | Parameter check: reported MRT is higher for which label, I or II ? Mark your selection by writing its label.
Reply | I
